# Assayed Target: human GLP-1 receptor (human, UniProt P43220 24-463)
# Method Summary: cell-based or functional assay
Experimental Endpoint: EC50, cAMP (pM)

INSERT INTO assay_data (binder, experimental_endpoint, endpoint_value) VALUES
  ('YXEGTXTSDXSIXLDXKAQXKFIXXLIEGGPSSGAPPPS (Aib2, αMeF(2F)6, 4Pal10, αMeL13, Orn16, Aib20, D-Glu24, αMeY25, K17 and K21: K(AEEA2-(γ-Glu)-CO-(CH2)10-CH3), C-terminal NH2) [Example 137]', 'EC50, cAMP', 134),
  ('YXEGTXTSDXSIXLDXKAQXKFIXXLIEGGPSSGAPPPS (Aib2, αMeF(2F)6, 4Pal10, αMeL13, Orn16, Aib20, D-Glu24, αMeY25, K17 and K21: K(AEEA3-(γ-Glu)-CO-(CH2)12-CO2H), C-terminal NH2) [Example 77]', 'EC50, cAMP', 3030),
  ('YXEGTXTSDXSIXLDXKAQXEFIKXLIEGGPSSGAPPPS (Aib2, αMeF(2F)6, 4Pal10, αMeL13, Orn16, Aib20, αMeY25, K17 and K24: K(AEEA2-(γ-Glu)-CO-(CH2)10-CH3), C-terminal NH2) [Example 138]', 'EC50, cAMP', 267),
  ('YXEGTXTSDVSIXLDXKAQXEXIKXLIEGGPSSGAPPPS (Aib2, αMeF(2F)6, αMeL13, Orn16, Aib20, αMeF22, αMeY25, K17 and K24: K(AEEA2-(γ-Glu)-CO-(CH2)12-CO2H), C-terminal NH2) [Example 118]', 'EC50, cAMP', 437),
  ('YXEGTXTSDXSIXLDXKAQXEFIGXLIEGGKSSGAPPPS (Aib2, αMeF(2F)6, 4Pal10, αMeL13, Orn16, Aib20, αMeY25, K17 and K31: K(AEEA2-(γ-Glu)-CO-(CH2)12-CO2H), C-terminal NH2) [Example 104]', 'EC50, cAMP', 417),
  ('YXEGTXTSDXSIXLDXKAQXEXIKXLIEGGPSSGAPPPS (Aib2, αMeF(2F)6, Ac5c10, αMeL13, Orn16, Aib20, αMeF22, αMeY25, K17 and K24: K(AEEA2-(γ-Glu)-CO-(CH2)12-CO2H), C-terminal NH2) [Example 120]', 'EC50, cAMP', 1430),
  ('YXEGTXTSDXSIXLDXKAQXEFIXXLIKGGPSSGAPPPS (Aib2, αMeF(2F)6, 4Pal10, αMeL13, Orn16, Aib20, D-Glu24, αMeY25, K17 and K28: K(AEEA2-(γ-Glu)-CO-(CH2)12-CO2H), C-terminal NH2) [Example 17]', 'EC50, cAMP', 1570),
  ('YXEGTXTSDXSIXLDGKAQXEFIXXLIEGGKSSGAPPPS (Aib2, αMeF(2F)6, 4Pal10, αMeL13, Aib20, D-Glu24, αMeY25, K17 and K31: K(AEEA2-(γ-Glu)-CO-(CH2)12-CO2H), C-terminal NH2) [Example 101]', 'EC50, cAMP', 2940),
  ('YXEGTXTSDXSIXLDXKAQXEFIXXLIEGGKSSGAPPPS (Aib2, αMeF(2F)6, Ac5c10, αMeL13, Orn16, Aib20, D-Glu24, αMeY25, K17 and K31: K(AEEA2-(γ-Glu)-CO-(CH2)12-CO2H), C-terminal NH2) [Example 53]', 'EC50, cAMP', 180),
  ('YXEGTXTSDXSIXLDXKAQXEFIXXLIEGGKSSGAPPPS (Aib2, αMeF(2F)6, 4Pal10, αMeL13, Orn16, Aib20, D-Glu24, αMeY25, K17 and K31: K(AEEA2-(γ-Glu)-(4-(4-tert-butylphenyl)butanoyl)), C-terminal NH2) [Example 4]', 'EC50, cAMP', 137),
  ('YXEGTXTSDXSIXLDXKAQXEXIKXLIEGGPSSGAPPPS (Aib2, αMeF(2F)6, 4Pal10, αMeL13, Orn16, Aib20, αMeF22, αMeY25, K17 and K24: K(AEEA2-(γ-Glu)-CO-(CH2)12-CO2H), C-terminal NH2) [Example 82]', 'EC50, cAMP', 4780),
  ('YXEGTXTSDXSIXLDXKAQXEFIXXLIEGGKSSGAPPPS (Aib2, αMeF(2F)6, 4Pal10, αMeL13, Orn16, Aib20, D-Glu24, αMeY25, K17 and K31: K(AEEA2-(γ-Glu)-CO-(CH2)10-CH3), C-terminal NH2) [Example 5]', 'EC50, cAMP', 57),
  ('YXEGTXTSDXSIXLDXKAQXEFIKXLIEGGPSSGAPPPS (Aib2, αMeF(2F)6, 4Pal10, αMeL13, Orn16, Aib20, αMeY25, K17 and K24: K(AEEA2-(γ-Glu)-(10-(4-carboxyphenoxy)decanoyl)), C-terminal NH2) [Example 128]', 'EC50, cAMP', 293);
